Biological target: human TPH1 (Homo sapiens (Human), UniProt P17752)
Sequence (P17752 whole entry): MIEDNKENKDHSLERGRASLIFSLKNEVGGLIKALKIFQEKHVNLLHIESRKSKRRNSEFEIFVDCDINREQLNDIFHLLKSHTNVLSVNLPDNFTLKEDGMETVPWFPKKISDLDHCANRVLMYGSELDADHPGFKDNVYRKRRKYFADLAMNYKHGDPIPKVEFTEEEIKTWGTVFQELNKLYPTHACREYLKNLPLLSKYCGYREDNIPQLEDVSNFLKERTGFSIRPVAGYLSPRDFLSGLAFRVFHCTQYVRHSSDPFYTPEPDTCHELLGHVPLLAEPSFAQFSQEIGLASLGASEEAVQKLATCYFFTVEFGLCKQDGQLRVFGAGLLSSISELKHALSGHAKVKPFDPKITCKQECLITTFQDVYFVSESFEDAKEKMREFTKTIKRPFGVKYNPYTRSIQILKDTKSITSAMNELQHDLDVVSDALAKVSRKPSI
Assay: Biochemical in vitro assay using fluorescence readout (TPH1 inhibition)
Details: human TPH1, fluorescence readout
Decision: IC50 beneath 60 nM gives 1.0; IC50 meeting or exceeding 60 nM gives 0.0.

>>> classassignment("Cc1nn2c3c(nc2s1)CCN(C(=O)COc1ccc(S(N)(=O)=O)cc1)C3c1ccc(C2CC2)cc1F (stereo not shown)")
0.0
>>> classassignment("CCc1nc(N2CCCS2(=O)=O)ccc1OCC(=O)N1CCc2nc3sc(C(F)(F)F)nn3c2[C@@H]1c1ccc(Cl)cc1F")
1.0
>>> classassignment("COC1(c2csc(C3c4c(nc5sc(C)nn45)CCN3C(=O)COc3ccc(N4CCOCC4)nc3Cl)c2)COC1 (stereo not shown)")
1.0
>>> classassignment("Cc1nn2c3c(nc2s1)CCN(C(=O)COc1ccc(N2CCOCC2)nc1Cl)C3c1nc(CN(C)C)cs1 (stereo not shown)")
0.0
>>> classassignment("Cc1nn2c3c(nc2s1)CCN(C(=O)COc1cccnc1C)C3c1ccc(C2CC2)cc1F (stereo not shown)")
1.0
>>> classassignment("Cc1nn2c3c(nc2s1)CCN(C(=O)COc1ccc(NS(C)(=O)=O)nc1Cl)C3c1cnc(C(=O)N(C)C)s1 (stereo not shown)")
0.0
>>> classassignment("O=C(COc1ccc(C(F)(F)F)cc1Cl)N1CCc2nc3sccn3c2C1c1cnn(-c2ccccc2)c1 (stereo not shown)")
0.0
